Target: Ubiquitin-activating enzyme e1, putative (Leishmania donovani (strain BPK282A1))
Sequence (whole entry): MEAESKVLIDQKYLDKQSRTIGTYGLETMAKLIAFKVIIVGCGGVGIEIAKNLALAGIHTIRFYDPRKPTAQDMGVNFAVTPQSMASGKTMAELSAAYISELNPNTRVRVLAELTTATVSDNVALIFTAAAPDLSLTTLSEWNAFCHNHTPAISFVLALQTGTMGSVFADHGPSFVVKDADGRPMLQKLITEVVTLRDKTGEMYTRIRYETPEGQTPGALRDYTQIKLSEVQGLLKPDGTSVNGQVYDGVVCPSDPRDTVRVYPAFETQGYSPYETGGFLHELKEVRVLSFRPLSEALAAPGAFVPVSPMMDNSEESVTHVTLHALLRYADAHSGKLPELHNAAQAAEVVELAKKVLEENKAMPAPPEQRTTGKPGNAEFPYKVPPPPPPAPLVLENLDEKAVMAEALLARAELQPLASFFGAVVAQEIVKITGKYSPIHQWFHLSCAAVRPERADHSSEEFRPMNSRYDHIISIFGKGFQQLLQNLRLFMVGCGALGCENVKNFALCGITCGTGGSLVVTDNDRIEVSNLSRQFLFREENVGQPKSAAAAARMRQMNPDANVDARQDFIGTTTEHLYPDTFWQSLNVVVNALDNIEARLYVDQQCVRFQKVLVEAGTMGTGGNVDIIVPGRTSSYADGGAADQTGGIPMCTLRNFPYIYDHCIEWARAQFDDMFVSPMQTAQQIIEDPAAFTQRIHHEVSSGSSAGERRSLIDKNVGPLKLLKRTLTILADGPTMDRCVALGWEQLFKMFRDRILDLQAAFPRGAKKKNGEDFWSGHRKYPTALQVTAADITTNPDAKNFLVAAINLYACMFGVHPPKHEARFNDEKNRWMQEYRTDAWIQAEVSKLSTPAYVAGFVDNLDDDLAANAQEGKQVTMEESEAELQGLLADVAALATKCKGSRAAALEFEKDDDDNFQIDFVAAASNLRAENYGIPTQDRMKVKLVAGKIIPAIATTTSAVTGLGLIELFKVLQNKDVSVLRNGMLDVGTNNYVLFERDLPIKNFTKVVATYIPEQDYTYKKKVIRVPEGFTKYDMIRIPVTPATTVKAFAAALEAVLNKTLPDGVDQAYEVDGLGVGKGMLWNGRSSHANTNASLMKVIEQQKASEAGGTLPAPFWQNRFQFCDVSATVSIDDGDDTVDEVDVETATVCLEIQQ
Test: Leishmania donovani Ubiquitin Activating Enzyme (LdE1)
Type: functional
Parameters: scale not given: direction of the effect not stated beside the values
Settings: 30 µM
Results with a measured potency or affinity are listed apart.
Give measured Percent Effect for each item. Keep answers brief.
Provide the measurement as a number trailed by its unit.

## Input Assign Percent Effect to the following record: O=C1CC[C@H]2CN(Cc3ccc(Cl)s3)CC[C@H]2N1CCc1c[nH]cn1
## Output 5.48%

## Input Assign Percent Effect to the following record: COc1ccc(C2CC(=O)Nc3c2cnn3C2CCCC2)cc1 (stereo unspecified)
## Output -2.7%

## Input Assign Percent Effect to the following record: O=C1[C@@H]2CCN(Cc3ccoc3)C[C@@H]2OCCN1c1ccccc1
## Output 10.7%

## Input Assign Percent Effect to the following record: Cc1ccc(-c2nc(CN3CCc4nn(C)c(=O)cc4C3)co2)cc1
## Output 35.1%

## Input Assign Percent Effect to the following record: C1CC(CN2CCO[C@H]3[C@H](OCC4CC4)CC[C@@H]32)CCO1
## Output 2.7%

## Input Assign Percent Effect to the following record: O=C(CN1CCCCC1C1OCCO1)Nc1ccc(F)c(F)c1 (stereo unspecified)
## Output 5.41%

## Input Assign Percent Effect to the following record: CC(=O)NCCc1ccc(C(=O)N2CCCC2c2cnn(C)c2)cc1 (stereo unspecified)
## Output 21.1%

## Input Assign Percent Effect to the following record: Cn1ncc(C(=O)N2CCCC(n3cccn3)C2)c1C1CC1 (stereo unspecified)
## Output 10.7%

## Input Assign Percent Effect to the following record: COc1ccc(CC(=O)NC2(C)CCS(=O)(=O)C2)cc1F (stereo unspecified)
## Output 10.7%

## Input Assign Percent Effect to the following record: CCCNC(=O)NCc1cccnc1OC
## Output 13.3%

## Input Assign Percent Effect to the following record: CN(C)c1cc(C(=O)N2CCN(c3cnccn3)CC2)ccn1
## Output 10.3%
